Source listed as patent US11938114B2.

tested on: P. aeruginosa ATCC 27853; test: Standard EPI assay: MIC of test antibiotic (levofloxacin, cefepime) in absence and presence of EPI; format: cell-based, Pseudomonas aeruginosa; settings: levofloxacin as antibiotic; EPI at 12.5 μg; Pseudomonas aeruginosa ATCC 27853
Structures can show the parent of a compound that is named as a salt.
Listed compounds paired with reported Enhanced Activity in P. aeruginosa (fold enhancement of antibiotic activity)
property_measured: Enhanced Activity in P. aeruginosa (fold enhancement of antibiotic activity)

CC(C)(N)C1CN[C@H](CNC(=O)c2cc(-c3ccc(F)cc3)cc(-c3ccc(F)cc3)c2)C1.Cl.Cl (stereo partly shown) [Example 3] ... 32x/12.5 μg
CNC[C@@H]1CN[C@H](CNC(=O)c2cc(-c3ccc(F)cc3)cc(-c3ccc(F)cc3)c2)C1 [Example 14, hydrochloride salt] ... 32x/12.5 μg
Cl.Cl.NC[C@@H]1CNC(CNC(=O)c2cc(-c3ccc(C(F)(F)F)cc3)cc(-c3ccc(C(F)(F)F)cc3)c2)C1 (stereo in doubt) [Example 9] ... 4x/12.5 μg
NC[C@@H]1C[C@H](Oc2cc(-c3ccc(F)cc3)cc(-c3ccc(F)cc3)c2)CN1 [Example 8] ... 1x/12.5 μg

###

System: Escherichia coli ATC 25922
Experiment: Bacterial EPI assay: MIC of clarithromycin in the presence of EPI
Format: cell-based
Details: clarithromycin as antibiotic, EPI at 6.25 μg
Method: MIC assays were conducted in accordance with Clinical and Laboratory Standards Institute (CLSI) guidelines for broth microdilution. The EPI assay for the purposes of these studies represents a MIC assay in which the MIC of the antibiotic against the bacteria is tested in the presence of an experimental efflux pump inhibitor (EPI). […] Using serial dilutions of the EPI, its enhancement of antibiotic activity was then evaluated. […]
Counter-ions that a name gives are not always drawn.
property_measured: Enhanced Activity in E. coli (fold enhancement of antibiotic activity) (x/6.25 μg)

CNC[C@@H]1CN[C@H](CNC(=O)c2cc(-c3ccc(F)cc3)cc(-c3ccc(F)cc3)c2)C1 [Example 14, hydrochloride salt] ... 64
CC(C)(C(=O)NC[C@@H]1C[C@H](N)CN1)c1cc(-c2ccc(F)cc2)cc(-c2ccc(F)cc2)c1.Cl.Cl ... 8
NC[C@@H]1C[C@H](Oc2cc(-c3ccc(F)cc3)cc(-c3ccc(F)cc3)c2)CN1 ... 2
Cl.Cl.NC[C@H]1CN[C@H](CNC(=O)c2cc(-c3ccc(F)cc3)cc(-c3ccc(F)cc3)c2)C1 ... 1024
Cl.Cl.N[C@@H]1CN[C@H](CNC(=O)c2cc(-c3ccc(F)cc3)cc(-c3ccc(F)cc3)c2)C1 ... 64
CN1C[C@H](CN)C[C@H]1CNC(=O)c1cc(-c2ccc(F)cc2)cc(-c2ccc(F)cc2)c1 [Example 11, hydrochloride salt] ... 128
CC(C)(C(=O)NC[C@@H]1C[C@H](CN)CN1)c1cc(-c2ccc(F)cc2)cc(-c2ccc(F)cc2)c1 [Example 10, hydrochloride salt] ... 512
